These data points were gathered from the supplement of paper PMC11821682.

# Tested on: Danio rerio embryo
# Assay Method Text: BMC10 any morphological effect or mortality at 120 hpf; higher = less toxic
Measure Name: BMC10 any morphological effect or mortality (µM)
Express your answer in µM, writing the number without its unit.

>>> print(df.to_string())
                            compound_smiles  observed_measurement
0  Cc1c(-c2ccc(-c3ccccc3F)cc2)nc2ccc(F)cc2c1C(=O)O                 0.331

// switching to the query molecule
input: Query (molecule): `CCc1nc(N)nc(N)c1-c1ccc(Cl)cc1` ; field requested: BMC10 any morphological effect or mortality
output: 3.56

* * *

# Tested on: Danio rerio embryo
# Assay Method Text: LEL larval photomotor response dark phase 120 hpf
Measure Name: LEL larval photomotor response dark phase 120 hpf

In [3]: df
Out[3]:
                                   compound  observed_measurement
0           NC(=O)c1ccc(I)c([N+](=O)[O-])c1              > 100 µM
1  CC(C)c1cnn2c(NCc3ccccc3-n3cccn3)nc(OC3CCCNC3)nc12 (stereo not drawn)              > 100 µM
2  Cl.N=c1ccn2c(n1)O[C@H]1[C@H](O)[C@@H](CO)O[C@H]12              > 100 µM
3  O=C1CCC[C@@H]2[C@H]3CCCN4CCC[C@@H](CN12)[C@@H]34              > 100 µM
4  FC(F)(F)c1cc(C(F)(F)F)c2ccc3nc(-c4nnco4)cn3c2n1               11.1 µM

input: Query (compound): O=C(O)CCCCC1CCSS1 (racemic) ; field requested: LEL larval photomotor response dark phase 120 hpf
output: > 100 µM

input: Likewise for `C=C(C)[C@@H]1CC[C@]2(C(=O)O)CC[C@]3(C)[C@H](CC[C@@H]4[C@@]5(C)CC[C@H](O)C(C)(C)[C@@H]5CC[C@]43C)[C@@H]12` ?
output: 100 µM

input: Likewise for `COc1ccc(-c2coc3cc(O)ccc3c2=O)cc1` ?
output: > 100 µM

* * *

# Test system: Danio rerio embryo
# Assay Method Text: BMC10 any morphological effect or mortality at 120 hpf; higher = less toxic
List of BMC10 any morphological effect or mortality values.

Compound	Observed Measurement
O=c1cc(-c2ccccc2)oc2c(O)c(O)ccc12 [7,8-Dihydroxyflavone]	> 100 µM

input: What BMC10 any morphological effect or mortality appears in the records for this compound with Danio rerio embryo? O=C(O)c1ccc2nc(-c3ccccc3)c(-c3ccccc3)nc2c1 [2,3-diphenylquinoxaline-6-carboxylic acid]
output: > 100 µM

input: Likewise for CNc1ccc([N+](=O)[O-])c(Nc2ccc3[nH]ncc3c2)n1 [KRIBB11] ?
output: 3.27 µM

input: Likewise for O=P([O-])(O)C(O)(Cc1cccnc1)P(=O)(O)O.[Na+] [Risedronic acid] ?
output: > 100 µM

input: Likewise for CCC(C)n1ncn(-c2ccc(N3CCN(c4ccc(OC[C@H]5CO[C@](Cn6cncn6)(c6ccc(Cl)cc6Cl)O5)cc4)CC3)cc2)c1=O (some centres not stated) [Itraconazole] ?
output: 0.113 µM

input: Likewise for O.Oc1cc(O)c2c(c1)O[C@H](c1ccc(O)c(O)c1)[C@@H](O)C2 (racemic) [(±)-Catechin] ?
output: > 100 µM

input: Likewise for O=c1c(O[C@@H]2O[C@H](CO)[C@H](O)[C@H](O)[C@H]2O)c(-c2ccc(O)c(O)c2)oc2cc(O)cc(O)c12 [Quercetin 3-D-galactoside] ?
output: > 100 µM

* * *

# Test system: Danio rerio embryo
# Assay Method Text: LEL larval photomotor response dark phase 120 hpf
List of LEL larval photomotor response dark phase 120 hpf values.

Below, each entry is followed by its recorded LEL larval photomotor response dark phase 120 hpf result.
>>> df
                                   compound  observed_measurement
0  C/C1=C/CC/C(C)=C/CC(C)(C)/C=C/C1=O [Zerumbone]              > 100 µM
1  CC(=O)O[C@H]1[C@H]2O[C@]23[C@@H]2CC[C@@H]4C[C@@H](O)CC[C@]4(C)[C@H]2CC[C@]3(C)[C@H]1c1ccc(=O)oc1 [Cinobufagin]               33.3 µM

input: Query (compound): O=c1cc(-c2ccc(O)cc2)oc2cc(O)cc(O)c12 [Apigenin] ; field requested: LEL larval photomotor response dark phase 120 hpf
output: > 100 µM

input: Likewise for OC1=CC(OC)=C(C(CC(C2=CC=C(O)C=C2)O3)=O)C3=C1C/C=C(C)/C (stereo unspecified) [Isoxanthohumol] ?
output: > 100 µM

* * *

List of BMC10 any morphological effect or mortality values.
# Tested on: Danio rerio embryo
# Assay Method Text: BMC10 any morphological effect or mortality at 120 hpf; higher = less toxic

input: What BMC10 any morphological effect or mortality appears in the records for this compound with Danio rerio embryo? CC(=O)N[C@@H](CS)C(=O)O [N-acetyl-L-Cysteine]
output: > 100 µM

input: Likewise for CN1CCN(CCCN2c3ccccc3Sc3ccc(C(F)(F)F)cc32)CC1.Cl.Cl [Trifluoperazine] ?
output: 3.55 µM

input: Likewise for Cl.NC12C[C@H]3C[C@@H](C1)C[C@@H](C2)C3 [Amantadine] ?
output: > 100 µM

input: Likewise for COc1ccc2cc1Oc1ccc(cc1)C[C@H]1c3cc(c(OC)cc3CCN1C)Oc1c(O)c(OC)cc3c1[C@H](C2)N(C)CC3 [Fangchinoline] ?
output: 6.15 µM

input: Likewise for O=C(O)CCCCCCCCCCCCCCCCCCCO [20-hydroxy Arachidic acid] ?
output: > 100 µM

* * *

# System: Danio rerio embryo
# Assay Method Text: BMC10 any morphological effect or mortality at 120 hpf; higher = less toxic
Measure Name: BMC10 any morphological effect or mortality

Below, each entry is followed by its recorded BMC10 any morphological effect or mortality result.
Compound Smiles	Observed Measurement
CC[C@@]1([C@@H]2O[C@@H]([C@H]3O[C@@](O)(CO)[C@H](C)C[C@@H]3C)C[C@@H]2C)CC[C@H]([C@]2(C)CC[C@]3(C[C@H](O)[C@@H](C)[C@@H]([C@@H](C)[C@@H](OC)[C@H](C)C(=O)[O-])O3)O2)O1.[Na+]	27.5 µM
Nc1nccc2c1ncn2[C@@H]1O[C@H](CO)[C@@H](O)[C@H]1O	> 100 µM

input: Query (compound): `C=C(C)[C@@H]1CC[C@]2(C(=O)O)CC[C@]3(C)[C@H](CC[C@@H]4[C@@]5(C)CC[C@H](O)C(C)(C)[C@@H]5CC[C@]43C)[C@@H]12` ; field requested: BMC10 any morphological effect or mortality
output: > 100 µM

input: Likewise for `COC(=O)N[C@H](C(=O)NNC[C@H](O)[C@H](Cc1ccccc1)NC(=O)[C@@H](NC(=O)OC)C(C)(C)C)C(C)(C)C` ?
output: > 100 µM

input: Likewise for `O=c1c2cc(O)c(O)cc2oc2cc(O)c([C@@H]3O[C@H](CO)[C@@H](O)[C@H](O)[C@H]3O)c(O)c12` ?
output: > 100 µM

* * *

# Test system: Danio rerio embryo
# Assay Method Text: LEL larval photomotor response dark phase 120 hpf
Measure Name: LEL larval photomotor response dark phase 120 hpf

Molecule	Observed Measurement
CCC(=O)c1ccc(F)c([C@@H]2C[C@@H]2NC(=O)Nc2ccc(C#N)cn2)c1O [MIV-150]	> 100 µM

input: Query (molecule): Cl.O[C@@H](c1cc(C(F)(F)F)nc2c(C(F)(F)F)cccc12)[C@H]1CCCCN1 [Mefloquine] ; field requested: LEL larval photomotor response dark phase 120 hpf
output: > 100 µM

input: Likewise for Cc1cc(C#N)cc(C)c1Oc1nc(Nc2ccc(C#N)cc2)nc(N)c1Br [Etravirine] ?
output: > 100 µM

input: Likewise for `O=c1cc(-c2cccc3c2Sc2ccccc2S3)oc(N2CCOCC2)c1` ?
output: > 100 µM

* * *

# Test system: Danio rerio embryo
# Assay Method Text: BMC10 any morphological effect or mortality at 120 hpf; higher = less toxic
List of BMC10 any morphological effect or mortality values.

Below, each entry is followed by its recorded BMC10 any morphological effect or mortality result.
Compound	Observed Measurement
CC1(C)O[C@H]2CC(=O)OC[C@]23[C@H]2CC[C@@]4(C)[C@H](c5ccoc5)OC(=O)[C@H]5O[C@]54[C@]2(C)C(=O)C[C@@H]13 [Limonin]	> 100 µM
COC(=O)C1=C(C)N=C(c2ncc(F)cc2F)NC1c1ccc(F)cc1Cl (racemic) [(±)-BAY 41-4109]	8.25 µM
COc1cccc(N2CCN(C3=Nc4c(F)cccc4[C@H](CC(=O)O)N3c3cc(C(F)(F)F)ccc3OC)CC2)c1 [Letermovir]	> 100 µM
O=c1cc(-c2ccc(O)c(-c3c(O)cc(O)c4c(=O)cc(-c5ccc(O)cc5)oc34)c2)oc2cc(O)cc(O)c12 [Amentoflavone]	> 100 µM
CC(C)[C@H](NC(=O)[C@H](CCCNC(=N)N)NC(=O)NC(Cc1ccccc1)C(=O)O)C(=O)NC(C=O)CCCNC(=N)N.Cl.Cl (stereo partly specified) [Antipain]	> 100 µM

// switching to the query compound
input: Query (compound): Cc1nnc(C(=O)NC(C)(C)c2nc(C(=O)NCc3ccc(F)cc3)c([O-])c(=O)n2C)o1.[K+] [Raltegravir] ; field requested: BMC10 any morphological effect or mortality
output: > 100 µM
